B1: ACSBG2 (parent)
chain: FAQADALKGTLVSTLKEVKPTVFI

Variants of: B1
METHOD: protein stability index of a GFP-peptide fusion (GPS, HEK-293T) (PSI 1-6); higher = more stable;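 note: lentivirally expressed fusions sorted by FACS into six bins by GFP to DsRed ratio, PSI derived from sequencing read proportions per bin multiplied by bin number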
REPORTED_CONDITIONS: c terminus: a fixed tail appended
MEASURE_NAME: protein stability index
// response body must contain only the number

The reported protein stability index of the variant `T21V` was 4.03

The reported protein stability index of the variant `A6D` was 1.71

The reported protein stability index of the variant `K19T` was 2.53

The reported protein stability index of the variant `A2H` was 2.08

The reported protein stability index of the variant `T14P` was 1.23

The reported protein stability index of the variant `D5Q` was 2.4

The reported protein stability index of the variant `T10V` was 2.24

The reported protein stability index of the variant `F23E` was 2.3

The reported protein stability index of the variant `A6T` was 2.21

The reported protein stability index of the variant `E17R` was 1.99

The reported protein stability index of the variant `K8T` was 3.3

The reported protein stability index of the variant `T14A` was 1.8

The reported protein stability index of the variant `A4K` was 2.03

The reported protein stability index of the variant `S13G` was 1.04

The reported protein stability index of the variant `A4R` was 2.19

The reported protein stability index of the variant `A2L` was 2.46

The reported protein stability index of the variant `F1R` was 1.83

The reported protein stability index of the variant `S13M` was 3.57

The reported protein stability index of the variant `E17K` was 1.45

The reported protein stability index of the variant `L7C` was 1.52

The reported protein stability index of the variant `E17F` was 2.07

The reported protein stability index of the variant `A2M` was 1.79

The reported protein stability index of the variant `G9V` was 2.61

The reported protein stability index of the variant `V22R` was 2.94

The reported protein stability index of the variant `A4L` was 1.69

The reported protein stability index of the variant `S13E` was 1.27

The reported protein stability index of the variant `F23S` was 2.16

The reported protein stability index of the variant `T21A` was 1.36

The reported protein stability index of the variant `A4C` was 2.52

The reported protein stability index of the variant `Q3A` was 1.86

The reported protein stability index of the variant `L11T` was 2.78

The reported protein stability index of the variant `T14H` was 2.27

The reported protein stability index of the variant `K8S` was 1.71

The reported protein stability index of the variant `S13T` was 2.04

The reported protein stability index of the variant `G9Q` was 2.52

The reported protein stability index of the variant `L11D` was 2.02

The reported protein stability index of the variant `V22F` was 1.67

The reported protein stability index of the variant `I24F` was 4.5

The reported protein stability index of the variant `L11N` was 2.1

The reported protein stability index of the variant `F1L` was 2

The reported protein stability index of the variant `L15D` was 2.19

The reported protein stability index of the variant `K19A` was 2.49

The reported protein stability index of the variant `A4S` was 1.69

The reported protein stability index of the variant `V12P` was 1.85

The reported protein stability index of the variant `L7F` was 3.08

The reported protein stability index of the variant `D5A` was 3.35
